System: TO-N3 (biotin conjugate)
ASSAY OVERVIEW: pull-down binding Z-score (relative to library population); higher = stronger binding
TEST CONDITIONS: RNA library: Library-2
METRIC: pull-down binding Z-score
Give bare numbers.

GAGGUGAUGCAGAUACUUACCUG [U1snRNP5ss-20] | 0.68
GGCAGGGGGAGCUGCAGGGCUAUGGGAGGGGCCCCAGCGUCUGA [hsa-mir-1233-2_1233-1] | 3.66
GCGUCACGUGCACCCAAGUGACGC [hsa-mir-6786] | 0.688
GCUUCUCUUUCUCACCAGCAGC [hsa-mir-4467] | -0.461
CUGAUUCAGAAAGAUCAUCGG [hsa-mir-127] | -0.346

Dear colleague, could you send me pull-down binding Z-score for each of the items below? Thanks.
1. UUCUUGUACGAGUCUGCGGCCAACCGAGAA [hsa-mir-219a-2]
2. AUCUGAAUGAUCUCAGC [hsa-mir-626]
3. CUGUGGCCGGUCCCAG [hsa-mir-4656]
4. GUGGCUUCAACCAAGUUCAAAGUCAC [hsa-mir-3186]
5. UUCAUUCAUUCGUUUGCACAUUCGGUGAA [hsa-mir-493]
6. UGAUUUGUGACUUAAGAUUAAAAUCA [hsa-mir-23b]
7. UGCUUUGUUAGAAACAAAAAGCA [hsa-mir-4679-1]

1. 0.347
2. 0.677
3. 1.45
4. -0.441
5. -0.736
6. -0.499
7. 0.447

====

Tested on: TO-3-N3 (biotin conjugate)
ASSAY OVERVIEW: pull-down binding Z-score (relative to library population); higher = stronger binding
TEST CONDITIONS: RNA library: Library-2
Heads up, the class ranges for pull-down binding Z-score are A: < -0.4; B: ≥ -0.4 and < -0.2; C: ≥ -0.2

UGCUUUGGUGUAAAGAUGGCCAUGUAGAAACAUUUUACCCAAAAUUACAAUCUAGUCAAGCGUGGCAACCGGGUGUUGCUAUGCCUAAUCUUUACAAAAUGCA | C

Returns: class label. Input: GUGAGGUAUUUUAGUAACAUCAC [hsa-mir-125b-2]
A

Returns: class label. Input: GGGAGCAAACCC [IAV_invivo_PB1_2_Motif_31+IAV_invivo_PB1_2_Motif_31]
C

Returns: class label. Input: CCCUGCCCAGUGCAGGAG [hsa-mir-6069]
A

Returns: class label. Input: UUCUGUUGUCUGAAAGAAACCAA [hsa-mir-518d]
B

Returns: class label. Input: CAUCACUGGAAUGUUCCAGCGACU [hsa-mir-3654]
B

Returns: class label. Input: `GGUUCACUAUAUGUUAAACCAGGUGGAACC`
C

Returns: class label. Input: CAGUGUUAGCUCCAGAAGCAUUG [hsa-mir-3170]
C

Returns: class label. Input: GCCUCCUGGAUCUCUAGGUCUCAGGGC [hsa-mir-6744]
B

Returns: class label. Input: UGGCAAAGGGGUAGCUAAACAAUCUAUGUCUUUGCCA [hsa-mir-3119-1]
B

Returns: class label. Input: CUCUGGAACACUUUUACAAGACUUCAGAG [SHAPE_invivo_SARS-CoV-2_Motif_367]
C

Returns: class label. Input: UCUUCCCAAAGUUGAGAAAA [hsa-mir-320d-1]
A

Returns: class label. Input: UCUAUCUGUAUUCUUACUGAAGGGA [hsa-mir-504]
A

Returns: class label. Input: GCAAGGUUGUUGGUGAUAUGGCUUCCUCUC [hsa-mir-4685]
C

Returns: class label. Input: GAGUCCUCAUCGGAGGACUU [IAV_invivo_NS1_NEP_8_Motif_11+IAV_invivo_NS1_NEP_8_Motif_11]
B

Returns: class label. Input: AGAAAUCAAGCUAUUUGCUAAAAGUUCU [hsa-mir-6844]
B

====

Tested on: G-clamp-N3 (biotin conjugate)
ASSAY OVERVIEW: pull-down binding Z-score (relative to library population); higher = stronger binding
TEST CONDITIONS: RNA library: Library-1 (pre-miRNA loops + repeats)
Decide using pull-down binding Z-score: a value greater than or equal to 0.3 is true, a smaller one is false.

Completed entries (count: 4):
ACUCCCAGAACUCAUUAAGUUGGUAGU [hsa-mir-1278] | false
GGUGGGUGGGAAGUAAGAUCUGACCUGGACUCCAUCCCACCCACC [hsa-mir-4640] | false
CCUUGUGAAUGUCGGGCAAUGG [hsa-mir-4701] | true
GGGACGUGUGAUGCUGUGCUUCCU [hsa-mir-3689f] | false

Test whether the sequence UUUUAAUUUUUUUAAAA [hsa-mir-3606] records pull-down binding Z-score of 0.3 or higher.
false

Test whether the sequence CACACACAAUCACCGUGUG [hsa-mir-3118-2_3118-3_3118-4] records pull-down binding Z-score of 0.3 or higher.
false

Test whether the sequence UUCAUAGGGAAGCCUUUCCAUGAA [hsa-mir-4738] records pull-down binding Z-score of 0.3 or higher.
false

====

Tested on: TO-N3-2 (biotin conjugate)
ASSAY OVERVIEW: pull-down binding Z-score (relative to library population); higher = stronger binding
TEST CONDITIONS: RNA library: Library-2
METRIC: pull-down binding Z-score
Answers are plain numbers.

CCACUGGGAAUGCUCCCUGAGGACGUUAUAUGAGUG [hsa-mir-4319] | 0.872

Dear colleague, could you send me pull-down binding Z-score for each of the items below? Thanks.
1. UCACUCACUGAGUGA [IAV_invivo_NP_5_Motif_1+IAV_invivo_NP_5_Motif_1]
2. AGGAGGGUCC [hsa-mir-3141]
3. GUGCACUUGACCCUCUCUCAGAAACAAAGUGUAC [SHAPE_invivo_SARS-CoV-2_Motif_422]

-1.45
1.02
-0.312

====

Test system: TO-3-N3-2 (biotin conjugate)
ASSAY OVERVIEW: pull-down binding Z-score (relative to library population); higher = stronger binding
TEST CONDITIONS: RNA library: Library-2
METRIC: pull-down binding Z-score
Answers are plain numbers.

Example entries begin here.
GUCAUUUUUCUGUGACUGCACAUGGC [hsa-mir-3136] | -0.15
GGGCUAGAUUCCC [DMSMaPseq_invitro_SARS-CoV-2_Motif_228] | -0.264
ACAAGAUGAUAAGAAAAUCAAAGCUUGU | -0.459
GGCCAGCAGAGGCC [IAV_invivo_PA_3_Motif_7+IAV_invivo_PA_3_Motif_7] | 0.0485
GUCAGUGAAACACAGGGAACAGAGAAACUGAC [IAV_invivo_PB2_1_Motif_24+IAV_invivo_PB2_1_Motif_24] | 0.282

Dear colleague, could you send me pull-down binding Z-score for each of the items below? Thanks.
1. GCGGCUGUUAAUGAUUUUAACAGUUGC [hsa-mir-449c]
2. GAGUUGCUGAGUGGGUUGAUCUC [hsa-mir-6764]
3. AAAAUUCAUGGCCUACAGCUGCCUCUUGCCAAACUGCACUGGAUUUU [hsa-mir-5010]

1. -0.119
2. 0.061
3. -0.176

====

Test system: TO-N3 (biotin conjugate)
ASSAY OVERVIEW: pull-down binding Z-score (relative to library population); higher = stronger binding
TEST CONDITIONS: RNA library: Library-2
METRIC: pull-down binding Z-score
One number for each entry.

CUGCAGUGAGUAGGUCUGCCU [hsa-mir-4254] | 0.705
AGUGCCAACAGACAAUUAUAUAACCACUUACCCGGGUCAGGGUUUAAAUGGUUACACU | -0.462
UAAUAUGUAAUAUAAAUGUAUUG [hsa-mir-450a-2] | -0.167
GCCGGAUCAGACCGAGUGAUGGUAUCACCACUGGC [IAV_invivo_PB2_1_Motif_5+IAV_invivo_PB2_1_Motif_5] | -0.143
GUUAGUACAACUACUAAC [SHAPE_invivo_SARS-CoV-2_Motif_138] | -1.06

Dear colleague, could you send me pull-down binding Z-score for each of the items below? Thanks.
1. ACUAAUUUUUCCACUAGUUAGU [hsa-mir-4424]
2. UGAUCAUUAUAUGUAUGAUGAGAUCAU [hsa-mir-4528]

1. -0.137
2. -0.54

====

Test system: TO-N3 (biotin conjugate)
ASSAY OVERVIEW: pull-down binding Z-score (relative to library population); higher = stronger binding
TEST CONDITIONS: RNA library: Library-2
METRIC: pull-down binding Z-score
Numbers only.

Dear colleague, could you send me pull-down binding Z-score for each of the items below? Thanks.
1. GAGCUGGGUGGGGUGCCAAGCCU [hsa-mir-6819]
2. GAGACGGUCGGGUCCAGAUAUUCGUAUCUGUCGAGUAGAGUGUGGGCUCC [Broccoli]
3. AUGCCUGAGAAUAUAUGAAGGAGGCU [hsa-mir-204]
4. UCUUUAAGGAAGGAAGUUCUGUUGAAUUAAAACACUUCUUCUUUGCUCAGGA [DMSMaPseq_invitro_SARS-CoV-2_Motif_265]

[2.43, 1.12, 0.525, -1.23]
